Target: κ opioid receptor (Cavia porcellus)
Construct: determined in guinea pig brain cells; from tissue; host or cells: guinea pig brain
Sequence (P41144 whole entry): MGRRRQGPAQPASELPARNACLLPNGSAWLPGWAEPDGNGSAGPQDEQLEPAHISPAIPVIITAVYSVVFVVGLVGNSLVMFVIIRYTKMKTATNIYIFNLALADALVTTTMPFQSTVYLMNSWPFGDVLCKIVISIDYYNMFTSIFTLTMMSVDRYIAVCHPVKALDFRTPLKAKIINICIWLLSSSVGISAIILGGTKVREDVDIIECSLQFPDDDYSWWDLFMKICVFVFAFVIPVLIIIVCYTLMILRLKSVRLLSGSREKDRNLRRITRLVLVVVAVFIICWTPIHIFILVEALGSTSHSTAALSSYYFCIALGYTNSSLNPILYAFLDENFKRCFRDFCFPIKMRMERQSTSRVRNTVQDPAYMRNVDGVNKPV
Experiment: biochemical
Format: binding, guinea pig
Settings: Ki [3H] U69,593 (κ)
measured property: Ki (nM)
Field: numeric (nM). Do not append units.

Incoming: Please list Ki recorded for the compound CC1C2Cc3ccc(C(=O)NN)cc3C1(C)CCN2CC1CC1 (stereo not drawn)
Outgoing: 19

Incoming: Please list Ki recorded for the compound CC1C2Cc3ccc(C(=O)c4ccccc4)cc3C1(C)CCN2CC1CC1 (stereo not drawn)
Outgoing: 19

Incoming: Please list Ki recorded for the compound CC1C2Cc3ccc(NC=S)cc3C1(C)CCN2CC1CC1 (stereo not drawn)
Outgoing: 0.63

Incoming: Please list Ki recorded for the compound CNC(=O)c1ccc2c(c1)C1(C)CCN(CC3CC3)C(C2)C1C (stereo not drawn)
Outgoing: 2.6

Incoming: Please list Ki recorded for the compound CC1C2Cc3ccc(NC=O)cc3C1(C)CCN2CC1CC1 (single isomer, unassigned) [Example 19a]
Outgoing: 0.49

Incoming: Please list Ki recorded for the compound CC1[C@@H]2Cc3ccc(C(=N)NO)cc3[C@@]1(C)CCN2CC1CC1 (mixture of isomers)
Outgoing: 0.9

Incoming: Please list Ki recorded for the compound COC(=O)c1ccc2c(c1)[C@@]1(C)CCN(CC3CC3)C(C2)[C@@H]1C (racemic)
Outgoing: 2

Incoming: Please list Ki recorded for the compound CC1C2Cc3ccc(C(=O)NCCN(C)C)cc3C1(C)CCN2CC1CC1 (stereo not drawn)
Outgoing: 44

Incoming: Please list Ki recorded for the compound CC1C2Cc3ccc(C(=O)NCc4ccccc4)cc3C1(C)CCN2CC1CC1 (stereo not drawn)
Outgoing: 78

###

Target: δ opioid receptor (Cavia porcellus, UniProt A0A286XTF2)
Construct: determined in guinea pig brain cells; from tissue; host or cells: guinea pig brain
Sequence (A0A286XTF2 1-366): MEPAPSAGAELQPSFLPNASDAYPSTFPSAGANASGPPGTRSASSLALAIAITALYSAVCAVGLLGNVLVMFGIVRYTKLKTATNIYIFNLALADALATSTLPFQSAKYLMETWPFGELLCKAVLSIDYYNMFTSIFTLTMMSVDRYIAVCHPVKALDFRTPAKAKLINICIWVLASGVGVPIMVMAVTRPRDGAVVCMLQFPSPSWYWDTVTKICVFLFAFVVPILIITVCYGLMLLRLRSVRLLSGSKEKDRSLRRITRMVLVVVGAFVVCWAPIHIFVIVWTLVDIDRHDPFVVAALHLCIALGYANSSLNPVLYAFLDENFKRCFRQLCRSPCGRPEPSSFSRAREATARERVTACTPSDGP
Test: biochemical
Type: binding, guinea pig
Details: [3H] Naltrindole (δ)
pKi: −log10 of the molar value.
Respond with Y for pKi values of 7 and above, N for values below.

Incoming: I'd appreciate it if you could say whether C[C@H]1[C@H]2Cc3ccc(CN)cc3[C@]1(C)CCN2C[C@@H]1CCCO1 [Example 29] has pKi at least equal to 7.
Outgoing: N

Incoming: I'd appreciate it if you could say whether C[C@H]1[C@H]2C(=O)c3ccc(C(N)=O)cc3[C@]1(C)CCN2CC1CC1 (relative stereo) [Example 23] has pKi at least equal to 7.
Outgoing: Y

Incoming: I'd appreciate it if you could say whether CC1C2Cc3ccc(C(N)=O)cc3C1(C)CCN2CC1CCCO1 (single isomer, unassigned) [Example 26] has pKi at least equal to 7.
Outgoing: Y

Incoming: I'd appreciate it if you could say whether CC1C2C(=O)c3ccc(O)cc3[C@@]1(C)CCN2CC1CC1 (mixture of isomers) [(±)-ketocyclazocine, Ketocyclazocine, reference compound] has pKi at least equal to 7.
Outgoing: Y

Incoming: I'd appreciate it if you could say whether CC1C2Cc3ccc(C(N)=O)cc3C1(C)CCN2CC1CCCO1 (single isomer, unassigned) [Example 28] has pKi at least equal to 7.
Outgoing: Y

Incoming: I'd appreciate it if you could say whether CC[C@@]12CCN(CC3CC3)C(C(=O)c3ccc(O)cc31)C2C (mixture of isomers) [(±)-EKC, Ethylketocyclazocine, reference compound] has pKi at least equal to 7.
Outgoing: Y

Incoming: I'd appreciate it if you could say whether CC1C2C(=O)c3ccc(C#N)cc3C1(C)CCN2CC1CC1 (stereo not drawn) [Example 22] has pKi at least equal to 7.
Outgoing: N

Incoming: I'd appreciate it if you could say whether CC1C2Cc3ccc(O)cc3C1(C)CCN2CC1CCCO1 (single isomer, unassigned) [Example 25, reference compound] has pKi at least equal to 7.
Outgoing: Y
